System: M14
assayProtocol: NCI tumour cell line growth inhibition, 48 h
Activity calls are given as the source filed them. Cut-off read from the data, not from the text of the source: active = GI50 up to about 1.1 µM and inactive = higher.

[
  {
    "compound": "Cc1cc(C)nc(NS(=O)(=O)c2ccc(NC(=O)c3ccc(Cl)c4c(Nc5ccc(S(=O)(=O)N=C(N)N)cc5)c5ccccc5nc34)cc2)n1",
    "GI50": "> 100 µM (inactive)"
  },
  {
    "compound": "O=C(O)CNc1ccc2c(c1)Cc1cc(Br)ccc1-2",
    "GI50": "21.8 µM (inactive)"
  },
  {
    "compound": "O=[N+]([O-])c1ccc(NC2OCC(O)C(O)C2O)cc1 (centres undefined)",
    "GI50": "> 100 µM (inactive)"
  },
  {
    "compound": "c1ccc2c(-c3csc(-c4c[nH]c5ccccc45)n3)c[nH]c2c1",
    "GI50": "> 100 µM (inactive)"
  },
  {
    "compound": "COc1ccc(C(F)(F)F)cc1NC(=O)O/N=C(/Cl)C(C)C",
    "GI50": "16.9 µM (inactive)"
  },
  {
    "compound": "O=C(CC1(O)C(=O)Nc2c(Cl)cc(Cl)cc21)c1ccc2ccccc2c1 (centres undefined)",
    "GI50": "4.79 µM (inactive)"
  },
  {
    "compound": "O=[N+]([O-])c1ccc(Cc2nc3cc4ccccc4cc3[nH]2)cc1C(F)(F)F",
    "GI50": "12.4 µM (inactive)"
  },
  {
    "compound": "C#C[C@]1(O)CC[C@H]2[C@@H]3CCC4=C/C(=N/OC(=O)c5cccc6c(=O)c7ccccc7[nH]c56)CC[C@@H]4[C@H]3CC[C@@]21C",
    "GI50": "56.5 µM (inactive)"
  },
  {
    "compound": "C=C(COC(C)=O)CC(/C=C(\\C)CC/C=C(\\C)CO)OC(C)=O (centres undefined)",
    "GI50": "> 100 µM (inactive)"
  },
  {
    "compound": "CC(C)(C)c1cc([N+](=O)[O-])cc([N+](=O)[O-])c1O",
    "GI50": "> 10 µM (inactive)"
  },
  {
    "compound": "CCOC(=O)CC(=O)ON(C)C(C)=O",
    "GI50": "> 100 µM (inactive)"
  },
  {
    "compound": "O=C1C(c2c(O)[nH]c3ccc(I)cc23)=Nc2ccccc21",
    "GI50": "14 µM (inactive)"
  },
  {
    "compound": "Cc1ccc2c(c1)nc1n2C(N)=Nc2ccccc2S1",
    "GI50": "3.44 µM (inactive)"
  },
  {
    "compound": "CCOC(=O)C1=C(C)NC(=O)NC1c1coc2cc(C)cc(C)c2c1=O (centres undefined)",
    "GI50": "34.7 µM (inactive)"
  },
  {
    "compound": "Cn1cc(NC(=O)Nc2cc(C(=O)Nc3cc(C(=O)Nc4cc(S(=O)(=O)O)c5cc(S(=O)(=O)O)cc(S(=O)(=O)O)c5c4)n(C)c3)n(C)c2)cc1C(=O)Nc1cc(C(=O)Nc2cc(S(=O)(=O)O)c3cc(S(=O)(=O)O)cc(S(=O)(=O)O)c3c2)n(C)c1",
    "GI50": "> 100 µM (inactive)"
  },
  {
    "compound": "CCOC(=O)NC(=O)c1c[nH]c(=O)[nH]c1=O",
    "GI50": "> 100 µM (inactive)"
  },
  {
    "compound": "CCC1=NC(N/N=C/c2ccccc2O)=N/C1=C\\c1ccccc1O",
    "GI50": "10.1 µM (inactive)"
  },
  {
    "compound": "OC1(C(Sc2cc(C(F)(F)F)cc(C(F)(F)F)c2)Sc2cc(C(F)(F)F)cc(C(F)(F)F)c2)C=CCCC1 (centres undefined)",
    "GI50": "1.81 µM (inactive)"
  },
  {
    "compound": "CCOC(=O)/C(C(=O)Nc1ccc(F)cc1)=C(/N)N1CCOCC1",
    "GI50": "> 100 µM (inactive)"
  }
]

All figures here come from ChEMBL document CHEMBL1201862.
